Tested on: M19-MEL melanoma
Assay: NCI tumour cell line growth inhibition, 48 h
For each of the compounds below, state its TGI.

According to the records, this compound O=c1nc2n(c3nsnc13)CCO2 displays TGI of > 100 µM

According to the records, this compound CCc1ccccc1N1C(=O)C(=O)C(c2nc3ccccc3s2)C(=O)C1=O displays TGI of > 100 µM

According to the records, this compound CNS(=O)(=O)NN(C)S(=O)(=O)c1ccc(OC)cc1 displays TGI of > 100 µM

According to the records, this compound COc1ccc2c3c([nH]c2c1CC=C(C)C)C(=O)C=C(C)C3=O displays TGI of > 25 µM

According to the records, this compound N#CC(C#N)=C(C(C#N)C#N)C(C#N)C#N displays TGI of > 100 µM

====

Tested on: SNB-78 CNS
Experiment: NCI tumour cell line growth inhibition, 48 h
For each of the compounds below, state its TGI.

According to the records, this compound O=c1c2ccccc2nc(-c2ccccc2Cl)n1NCC1(O)OCC(O)C(O)C1O (centres undefined) displays TGI of > 100 µM

According to the records, this compound O=C1NC(c2cccc3ccccc23)Nc2ccc(O)cc21 (centres undefined) displays TGI of > 150 µM

According to the records, this compound O=C1C=C(Nc2ccccc2C(=O)c2ccccc2)c2ccccc2C1=O displays TGI of > 100 µM

According to the records, this compound C[Si](C)(C)/N=C1\N2C(=NC1(C(F)(F)F)C(F)(F)F)Sc1ccccc12 displays TGI of > 50 µM

According to the records, this compound C=C1CC(OC)(C(OC)C(=O)N(C)[C@H]2OCO[C@H]3C2O[C@H](C[C@@H](COC)OC)C(C)(C)C3OC)O[C@H](C)[C@@H]1C (some centres undefined) displays TGI of 43.5 µM

According to the records, this compound Nc1ccc(N)c2c1C(=O)c1ccccc1C2=O displays TGI of > 100 µM

According to the records, this compound CCc1cccc(CC)c1NC(=O)C(=O)Cc1nc2ccccc2o1 displays TGI of > 100 µM

According to the records, this compound N#CC1=C(Cl)NC(Cl)=C(C#N)C1c1ccc(Cl)cc1 displays TGI of 72.5 µM

According to the records, this compound C[C@]12CCC3[C@@H](CC[C@@H]4c5nonc5CC[C@]34C)C1CCC2=O (some centres undefined) displays TGI of 99.7 µM

According to the records, this compound CCC[CH2][Sn]1([CH2]CCC)[O]CC(c2ccccn2)C[O]1 displays TGI of 61.3 µM

According to the records, this compound C[C@]12CC[C@H](O)CC1=CC[C@@H]1C2CC[C@]2(C)NC(=O)C(C#N)CC12 (some centres undefined) displays TGI of > 100 µM

According to the records, this compound CCOc1ccc(NC(=O)CC2C(=O)Nc3ccccc3S2=O)cc1 (centres undefined) displays TGI of > 100 µM

According to the records, this compound COC(=O)CCC(NC(=S)N/N=C(\C)c1ccco1)C(=O)OC (centres undefined) displays TGI of > 100 µM

According to the records, this compound O=C(CSc1nnc(Cc2ccccc2)o1)Nc1ccc(Cl)cc1Cl displays TGI of > 100 µM

====

For each of the compounds below, state its TGI.
Tested on: IGROV1 ovarian
Assay: NCI tumour cell line growth inhibition, 48 h

According to the records, this compound CCOC(=O)c1sc2nc(SC)nc(Nc3ccc4c(c3)OCO4)c2c1N displays TGI of > 100 µM

According to the records, this compound CCCOC(=O)c1ccc2c(c1)[N+](=O)C(C(=O)c1ccccc1)=C(C(F)(F)F)[N+]2=O displays TGI of 3.61 µM

According to the records, this compound CCc1ccccc1N1C(=O)C(=O)C(c2nc3ccccc3s2)C(=O)C1=O displays TGI of > 100 µM

According to the records, this compound CNS(=O)(=O)NN(C)S(=O)(=O)c1ccc(OC)cc1 displays TGI of > 100 µM

According to the records, this compound O=C(CC(=O)Nc1ccc(C(=O)O)cc1)Nc1ccc(C(=O)O)cc1 displays TGI of > 100 µM

According to the records, this compound O=C(CSCC(=O)N/N=C\c1cc(Cl)cc(Cl)c1O)N/N=C\c1cc(Cl)cc(Cl)c1O displays TGI of 15.3 µM

According to the records, this compound CC1=NN(C2=NS(=O)(=O)c3ccccc3N2C)C(=O)C1 displays TGI of > 100 µM

According to the records, this compound Cn1c(N)c(Cc2ccc(Cl)cc2)c(=O)[nH]c1=O displays TGI of > 100 µM

According to the records, this compound COC(=O)c1cc2cc(OC)c(OC)cc2cc(C(=O)OC)c1=O displays TGI of > 100 µM

According to the records, this compound O=c1[nH]cnc2[nH]cc(CN3CCCCC3)c12 displays TGI of > 100 µM

According to the records, this compound C/C(Cc1ccc(Cl)cc1)=C(\c1ccc(OCCN2CCCCCC2)cc1)c1ccc(OC(=O)c2ccccc2)cc1 displays TGI of 10.3 µM

According to the records, this compound O=C(c1ccccc1)c1ccc2nc(-c3c(Cl)c(Cl)c(Cl)c(Cl)c3C(=O)N/N=C\C=C\c3ccccc3)[nH]c2c1 displays TGI of > 100 µM

According to the records, this compound Nc1nonc1-c1nc2cnccc2n1C1CCCCC1 displays TGI of > 25 µM

According to the records, this compound NC(C(=O)O)c1cc(=O)[nH]o1 (stereo not drawn) displays TGI of > 100 µM

According to the records, this compound CC1=CP(=O)(OC(C)C)CC(C)=C1Cl (stereo not drawn) displays TGI of > 100 µM

According to the records, this compound CC(C)Sc1nncc(/C(N)=N/O)n1 displays TGI of > 100 µM

According to the records, this compound COc1ccc(CN=C2N/C(=C\c3ccccc3Cl)C(=O)N2C)cc1 displays TGI of 62.6 µM

According to the records, this compound Cc1ccc2cc3c(N)c4c(C)ccc(C)c4nc3nc2c1 displays TGI of 22.3 µM

According to the records, this compound CC12CCC3(C1)[C@H](CC2=O)C[C@@H](OC(=O)c1ccccc1)C1C(C)(CO)CCC[C@@]13C (stereo partly drawn) displays TGI of > 100 µM

According to the records, this compound O=C1C[C@@H](c2ccc(O)cc2)[C@@]2(O1)C(=O)O[C@H]([C@@H](O)CO)[C@@H]2O displays TGI of > 100 µM

According to the records, this compound O=C1OC(c2cccc(C(F)(F)F)c2)(c2cccc(C(F)(F)F)c2)c2ccc3ccccc3c21 displays TGI of > 100 µM

According to the records, this compound COc1ccc(-c2nnc(-c3nsc4ccccc34)o2)cc1 displays TGI of > 100 µM

According to the records, this compound Clc1ccc(-c2noc(CN3CCCCC3)n2)cc1 displays TGI of > 100 µM

According to the records, this compound COc1ccc(C2C(C#N)=C(N)Oc3c2sc2c(C)cccc32)cc1 (stereo not drawn) displays TGI of 14.5 µM

According to the records, this compound COCP1(=S)OC(C)CCN1C(C)C (stereo not drawn) displays TGI of > 100 µM

According to the records, this compound CC(=O)Nc1ccc(C2C(C(=O)Nc3ccccc3C)=C(C)NC(C)=C2C(=O)Nc2ccccc2C)cc1 displays TGI of > 100 µM

According to the records, this compound CC(=O)Oc1ccc(/C=C/C(=O)NCC(NC(=O)/C=C/c2ccc(OC(C)=O)c(OC(C)=O)c2)C(=O)O)cc1OC(C)=O (stereo not drawn) displays TGI of > 100 µM

According to the records, this compound CCOC(=O)C1=NC(c2ccccc2)(c2ccccc2)OC1=C(Cl)Cl displays TGI of > 100 µM

====

For each of the compounds below, state its TGI.
Test system: RXF 393 renal
Assay: NCI tumour cell line growth inhibition, 48 h

According to the records, this compound COc1cc(/C=C2/SC(c3ccccc3)N(c3cc(Cl)ccc3Cl)C2=O)cc(OC)c1OC (stereo not given) displays TGI of > 100 µM

According to the records, this compound C/C(Cc1ccc(Cl)cc1)=C(\c1ccc(OCCN2CCCCCC2)cc1)c1ccc(OC(=O)c2ccccc2)cc1 displays TGI of 9.15 µM

According to the records, this compound Cn1c(N)c(Cc2ccc(Cl)cc2)c(=O)[nH]c1=O displays TGI of > 100 µM

According to the records, this compound CSC(N)=Nc1cccc2ccccc12 displays TGI of > 10 µM

According to the records, this compound Brc1ccc2c(C3CN[C@@H](c4c[nH]c5cc(Br)ccc45)CN3)c[nH]c2c1 (stereo not given in full) displays TGI of 4.41 µM

According to the records, this compound CCCCCc1cccc(=O)o1 displays TGI of > 100 µM

According to the records, this compound NC1CCCCC1N.O=NN1CCCCCC1(P(=O)([O-])[O-])P(=O)([O-])[O-].[Na+].[Pt+2] displays TGI of > 100 µM

According to the records, this compound COC(=O)C1SC(N(C)c2ccccc2)=NC12c1ccccc1Nc1ccccc12 (stereo not given) displays TGI of > 100 µM

According to the records, this compound COc1ccc(CN=C2N/C(=C\c3ccccc3Cl)C(=O)N2C)cc1 displays TGI of > 100 µM

According to the records, this compound Cc1ccc2c(c1)c(C1=C(c3cn(C)c4ccccc34)C(=O)NC1=O)cn2C displays TGI of 4.79 µM

Recorded values, source PubChem BioAssay (NCI).
